molecular target: Activated CDC42 kinase 1 (Homo sapiens) (UniProt Q07912); conditions: at 1 µM
Sequence (Q07912 whole entry, looked up): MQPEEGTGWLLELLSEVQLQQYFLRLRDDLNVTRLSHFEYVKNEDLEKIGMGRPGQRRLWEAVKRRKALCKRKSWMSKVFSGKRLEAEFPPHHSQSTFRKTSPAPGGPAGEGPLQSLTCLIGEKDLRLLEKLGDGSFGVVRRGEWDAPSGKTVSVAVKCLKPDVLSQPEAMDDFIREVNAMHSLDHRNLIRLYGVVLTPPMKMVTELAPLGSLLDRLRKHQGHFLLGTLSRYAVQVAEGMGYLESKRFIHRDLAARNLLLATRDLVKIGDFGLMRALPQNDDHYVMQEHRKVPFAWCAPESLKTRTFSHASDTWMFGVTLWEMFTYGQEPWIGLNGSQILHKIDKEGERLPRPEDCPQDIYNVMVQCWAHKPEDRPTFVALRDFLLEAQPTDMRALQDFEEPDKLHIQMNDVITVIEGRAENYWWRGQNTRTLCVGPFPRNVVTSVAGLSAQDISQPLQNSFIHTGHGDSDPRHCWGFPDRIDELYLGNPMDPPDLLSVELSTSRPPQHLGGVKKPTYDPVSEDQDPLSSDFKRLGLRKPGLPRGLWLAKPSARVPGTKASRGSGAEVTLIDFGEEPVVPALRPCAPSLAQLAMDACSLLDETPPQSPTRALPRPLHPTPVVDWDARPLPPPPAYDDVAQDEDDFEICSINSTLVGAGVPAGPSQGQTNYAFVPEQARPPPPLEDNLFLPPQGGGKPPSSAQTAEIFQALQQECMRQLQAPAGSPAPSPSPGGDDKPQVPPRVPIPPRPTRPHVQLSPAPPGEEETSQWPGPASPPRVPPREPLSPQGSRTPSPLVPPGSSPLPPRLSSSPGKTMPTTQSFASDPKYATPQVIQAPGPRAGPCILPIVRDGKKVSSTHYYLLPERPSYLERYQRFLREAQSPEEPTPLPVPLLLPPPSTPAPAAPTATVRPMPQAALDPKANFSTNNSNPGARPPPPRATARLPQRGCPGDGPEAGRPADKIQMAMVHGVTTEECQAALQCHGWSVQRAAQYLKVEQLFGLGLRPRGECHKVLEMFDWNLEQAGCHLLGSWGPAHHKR
Description: GSK_PKIS: TNK2 mean inhibition at 1 uM [Nanosyn]
MEASURED_PROPERTY: inhibition (%)
Numbers only, in %.

{"SMILES": "CCCN1CCC(Oc2cc(Nc3nc(Nc4cccc(F)c4C(N)=O)c4cc[nH]c4n3)c(OC)cc2Cl)CC1", "UNIT_NAME": "%", "inhibition": 2.16}
{"SMILES": "COC(=O)Nc1nc2cc(Oc3ccc(NC(=O)Nc4cccc(C(=O)O)c4)cc3)ccc2[nH]1", "UNIT_NAME": "%", "inhibition": 0.6}
{"SMILES": "CN1CCC(C(=O)Nc2n[nH]c3nnc(-c4ccccc4)cc23)CC1", "UNIT_NAME": "%", "inhibition": 1.85}
{"SMILES": "O=C1NC(=O)C(c2ccc(Cl)cc2)=C1Nc1ccc(Cl)c(C(=O)O)c1", "UNIT_NAME": "%", "inhibition": -0.48}
{"SMILES": "Fc1cccc(COc2ccc(Nc3ncnc4cc(-c5ccc[nH]5)sc34)cc2Cl)c1", "UNIT_NAME": "%", "inhibition": 0.88}
{"SMILES": "O=C1NC(=O)C(c2cccc(Cl)c2)=C1Nc1ccc(O)c(Cl)c1", "UNIT_NAME": "%", "inhibition": -0.58}

Report inhibition for each item below.
1. O=C1NC(=O)C(c2ccccc2Cl)=C1Nc1cccc(O)c1
2. CS(=O)(=O)CCNCc1ccc(-c2ccc3ncnc(Nc4ccc(OCc5ccccc5)c(Cl)c4)c3c2)o1

1. 3.26
2. 0.61

----------
I'd be grateful if you could share measured inhibition for these entries.
target: Tyrosine-protein kinase TXK (Homo sapiens); details: at 1 µM;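 further: value given is the mean percent inhibition of TXK kinase activity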
Answers are plain numbers, in %.

Example entries and their recorded answers appear below.
{"COMPOUND": "Cc1nnc(-c2ccc(C)c(-c3ccc(C(=O)Nc4cccc(C#N)c4)cc3)c2)o1", "inhibition / %": 4.78}
{"COMPOUND": "COc1ccc(-c2ccncc2)cc1C(N)=O", "inhibition / %": 5.36}
{"COMPOUND": "CC1=C(C(=O)Nc2ccc3[nH]ncc3c2)C(c2ccc3ccccc3c2)CC(=O)N1 (centres undefined)", "inhibition / %": 8.34}
{"COMPOUND": "CN1CCC(C(=O)Nc2n[nH]c3nnc(-c4ccccc4)cc23)CC1", "inhibition / %": 4.13}
{"COMPOUND": "[O-][S+]1CCN(Cc2ccc(-c3ccc4ncnc(Nc5ccc(OCc6ccccc6)c(F)c5)c4c3)o2)CC1", "inhibition / %": 3.34}

Report inhibition for each item below.
1. CS(=O)(=O)CCN(CC#N)Cc1ccc(-c2ccc3ncnc(Nc4ccc(OCc5cccc(F)c5)c(Cl)c4)c3c2)o1
2. Cc1ccc(C(=O)NC2CCCCC2)cc1-c1ccc(C(=O)NCC2CC2)cc1
3. N#Cc1c(NC(=O)c2cccc3ccccc23)sc2c1CCCC2

-2.94
5.63
4.42

Report inhibition for each item below.
1. O=C(Nc1n[nH]c2nc(-c3ccco3)c(Br)cc12)C1CC1
2. COc1ccc(-c2coc3ncnc(N)c23)cc1
3. CCn1c(-c2nonc2N)nc2cncc(C(=O)N3CC[C@H](N)C3)c21
4. COC(=O)Nc1nc2cc(Oc3ccc(NC(=O)Nc4cccc(C(=O)O)c4)cc3)ccc2[nH]1
5. O=C1Nc2ccc(C(=O)c3ccco3)cc2C1=Cc1cc(Cl)c(O)c(Cl)c1
6. CC(C)=Cc1cccc2c1/C(=N/Nc1ccc(S(N)(=O)=O)cc1)C(=O)N2

1: 5.55; 2: 6.19; 3: 2.08; 4: 1.48; 5: 11.2; 6: 12.9

----------
I'd be grateful if you could share measured inhibition for these entries.
biological target: Serine/threonine-protein kinase PAK 3 (Homo sapiens) (UniProt O75914); details: at 0.1 µM;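 further: mean percent inhibition of PAK3, measured in a screen of the GSK published kinase inhibitor set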
Sequence (O75914 whole entry, looked up): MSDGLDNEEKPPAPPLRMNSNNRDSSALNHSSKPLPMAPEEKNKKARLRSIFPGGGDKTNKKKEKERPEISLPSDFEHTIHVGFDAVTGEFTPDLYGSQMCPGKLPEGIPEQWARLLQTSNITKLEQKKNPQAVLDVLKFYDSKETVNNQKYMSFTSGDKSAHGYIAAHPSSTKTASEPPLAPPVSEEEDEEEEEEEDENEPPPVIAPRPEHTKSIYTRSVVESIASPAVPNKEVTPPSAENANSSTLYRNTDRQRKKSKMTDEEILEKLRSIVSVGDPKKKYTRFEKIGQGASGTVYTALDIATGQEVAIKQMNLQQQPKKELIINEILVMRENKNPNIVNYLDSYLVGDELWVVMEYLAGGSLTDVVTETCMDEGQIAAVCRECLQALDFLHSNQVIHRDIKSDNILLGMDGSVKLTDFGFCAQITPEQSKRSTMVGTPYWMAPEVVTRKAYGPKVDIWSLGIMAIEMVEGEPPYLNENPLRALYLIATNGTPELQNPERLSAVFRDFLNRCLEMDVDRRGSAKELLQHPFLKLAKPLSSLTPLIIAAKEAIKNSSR
Give bare numbers, in %.

Example entries and their recorded answers appear below.
{"SMILES": "CS(=O)(=O)CCNCc1nc(-c2ccc3ncnc(Nc4ccc(F)c(Cl)c4)c3c2)cs1", "UNIT_NAME": "%", "inhibition": 2}
{"SMILES": "Cc1cc(O)cc(C)c1/C=C/c1cncc(-c2nn[nH]n2)c1", "UNIT_NAME": "%", "inhibition": 4.55}
{"SMILES": "COc1cc2c(cc1Nc1nc(N3CCc4ccccc43)c3cc[nH]c3n1)N(C(=O)CN(C)C)CC2", "UNIT_NAME": "%", "inhibition": 1.31}

Report inhibition for each item below.
1. CN1CCC(C(=O)Nc2n[nH]c3nnc(-c4ccccc4)cc23)CC1
2. NS(=O)(=O)c1cccc(-c2ccc3c(NC(=O)C4CC4)n[nH]c3c2)c1
3. CCc1cccc(NC(=O)Nc2ccc(Oc3ccc4nc(NC(=O)OC)[nH]c4c3)cc2)c1
4. COc1ccc(-c2coc3ncnc(N)c23)cc1

1: 5.86; 2: -2.1; 3: 0.88; 4: 4.88

----------
molecular target: Serine/threonine-protein kinase Chk2 (Homo sapiens) (UniProt O96017); conditions: at 1 µM;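 further: reported value is the mean inhibition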
Sequence (O96017 whole entry): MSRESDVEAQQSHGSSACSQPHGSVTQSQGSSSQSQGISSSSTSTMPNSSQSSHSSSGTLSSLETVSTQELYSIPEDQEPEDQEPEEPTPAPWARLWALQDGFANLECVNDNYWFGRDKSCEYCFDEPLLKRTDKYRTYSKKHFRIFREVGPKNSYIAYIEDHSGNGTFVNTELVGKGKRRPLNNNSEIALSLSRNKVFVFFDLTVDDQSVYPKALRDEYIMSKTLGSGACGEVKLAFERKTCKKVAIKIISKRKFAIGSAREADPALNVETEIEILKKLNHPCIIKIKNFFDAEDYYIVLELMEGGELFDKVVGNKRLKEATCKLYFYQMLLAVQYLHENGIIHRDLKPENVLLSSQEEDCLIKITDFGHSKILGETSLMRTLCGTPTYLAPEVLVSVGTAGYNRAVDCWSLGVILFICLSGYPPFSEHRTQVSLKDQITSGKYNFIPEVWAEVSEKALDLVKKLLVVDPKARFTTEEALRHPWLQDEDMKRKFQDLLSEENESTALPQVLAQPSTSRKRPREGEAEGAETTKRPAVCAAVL
MEASURED_PROPERTY: inhibition (%)
Answers are plain numbers, in %.

Example entries and their recorded answers appear below.
{"MOLECULE": "COc1cccc(-n2ncc3c(N/N=C/c4cccc(F)c4)ncnc32)c1", "MEASURED_PROPERTY": "inhibition", "UNIT_NAME": "%", "RESULT_VALUE": 1.6}
{"MOLECULE": "Cc1ccc(C(=O)NC2CCCCC2)cc1-c1ccc(C(=O)NCC2CC2)cc1", "MEASURED_PROPERTY": "inhibition", "UNIT_NAME": "%", "RESULT_VALUE": 1.29}
{"MOLECULE": "CCc1cccc(NC(=O)Nc2ccc(Oc3ccc4nc(NC(=O)OC)[nH]c4c3)cc2)c1", "MEASURED_PROPERTY": "inhibition", "UNIT_NAME": "%", "RESULT_VALUE": -2.63}
{"MOLECULE": "CC1=C(C(=O)Nc2ccc3[nH]ncc3c2)C(c2ccc3ccccc3c2)CC(=O)N1 (configuration not stated)", "MEASURED_PROPERTY": "inhibition", "UNIT_NAME": "%", "RESULT_VALUE": 4.21}
{"MOLECULE": "COc1ccccc1Nc1ncc(-c2ccccc2)o1", "MEASURED_PROPERTY": "inhibition", "UNIT_NAME": "%", "RESULT_VALUE": -3.53}

Report inhibition for each item below.
1. Cc1nnc(-c2ccc(C)c(-c3ccc(C(=O)Nc4cccc(C#N)c4)cc3)c2)o1
2. CS(=O)(=O)CCNCc1ccc(-c2ccc3ncnc(Nc4ccc(OCc5ccccc5)c(Cl)c4)c3c2)o1
3. CCCN1CCC(Oc2cc(Nc3nc(Nc4cccc(F)c4C(N)=O)c4cc[nH]c4n3)c(OC)cc2Cl)CC1
4. Nc1nc(-c2ccc3c(c2)C(=Cc2cc(Br)c(O)c(Br)c2)C(=O)N3)cs1
5. Cc1cc(O)cc(C)c1/C=C/c1cncc(-c2nn[nH]n2)c1

1: 4.05; 2: -4.43; 3: 33.6; 4: 0.55; 5: 5.57

Report inhibition for each item below.
1. CCn1c(-c2nonc2N)nc2cncc(C(=O)N3CCNCC3)c21
2. COc1cc2ncn(-c3cc(OCc4ccccc4C(F)(F)F)c(C(N)=O)s3)c2cc1OC

[5.6, 5.56]

----------
target: MAP kinase-activated protein kinase 3 (Homo sapiens); settings: at 1 µM
Description: GSK_PKIS: MAPKAPK3 mean inhibition at 1 uM [Nanosyn]
I'd be grateful if you could share measured inhibition for these entries.
Reply with a number, then the unit it belongs to.

Example entries and their recorded answers appear below.
{"SMILES": "COc1cccc(-n2ncc3c(N/N=C/c4cccc(F)c4)ncnc32)c1", "RESULT_VALUE": "0.04%"}
{"SMILES": "COc1cc2ncn(-c3cc(O[C@H](C)c4ccccc4Cl)c(C(N)=O)s3)c2cc1OC", "RESULT_VALUE": "-0.41%"}
{"SMILES": "O=C1NC(=O)C(c2cccc(Cl)c2)=C1Nc1ccc(O)c(Cl)c1", "RESULT_VALUE": "1.59%"}
{"SMILES": "Cc1cc(O)cc(C)c1/C=C/c1cncc(-c2nn[nH]n2)c1", "RESULT_VALUE": "4.25%"}

Report inhibition for each item below.
1. CNC(=O)c1cncc(/C=C/c2c(Cl)cccc2Cl)c1
2. Fc1cccc(COc2ccc(Nc3ncnc4cc(-c5ccc[nH]5)sc34)cc2Cl)c1
3. COc1cc2c(cc1Nc1nc(N3CCc4ccccc43)c3cc[nH]c3n1)N(C(=O)CN(C)C)CC2
4. CS(=O)(=O)CCNCc1nc(-c2ccc3ncnc(Nc4ccc(F)c(Cl)c4)c3c2)cs1
5. Nc1ncnc2occ(-c3ccc(NC(=O)Nc4cccc(C(F)(F)F)c4)cc3)c12
6. NS(=O)(=O)c1cccc(-c2ccc3c(NC(=O)C4CC4)n[nH]c3c2)c1
7. Cn1cc(C=C2C(=O)Nc3cccnc32)c2ccccc21

1.96%
-0.26%
0.18%
1.58%
20.7%
2.74%
5.11%

Report inhibition for each item below.
1. CN(C)c1cc2c(Nc3ccc4nc(Cc5ccccc5)[nH]c4c3)ncnc2cn1
2. CS(=O)(=O)CCN(CC#N)Cc1ccc(-c2ccc3ncnc(Nc4ccc(OCc5cccc(F)c5)c(Cl)c4)c3c2)o1
3. O=C1Nc2ccc(C(=O)c3ccco3)cc2C1=Cc1cc(Cl)c(O)c(Cl)c1
4. COC(=O)Nc1nc2cc(Oc3cccc(NC(=O)Nc4cc(C(F)(F)F)ccc4F)c3)ccc2[nH]1
5. COC(=O)Nc1nc2cc(Oc3ccc(NC(=O)Nc4cccc(C(=O)O)c4)cc3)ccc2[nH]1

4.13%
-0.02%
2.14%
1.82%
-0.42%
